- System under test: mouse KOR (Mus musculus)
Quick rule for you: Ki under 1 nM gets t, anything else gets f.

// below: answered compounds
>  <Smiles data>
O=C(N[C@@H]1CC[C@@]2(O)[C@H]3Cc4ccc(O)c5c4[C@@]2(CCN3CC2CC2)[C@H]1O5)c1ccc2cc[nH]c2c1

>  <System under test>
mouse KOR (Mus musculus)

>  <Cat>
t

$$$$
>  <Smiles data>
O=C(N[C@@H]1CC[C@@]2(O)[C@H]3Cc4ccc(O)c5c4[C@@]2(CCN3CC2CC2)[C@H]1O5)c1ccc2[nH]ccc2c1

>  <System under test>
mouse KOR (Mus musculus)

>  <Cat>
t

$$$$
>  <Smiles data>
O=C(N[C@@H]1CC[C@@]2(O)[C@H]3Cc4ccc(O)c5c4[C@@]2(CCN3CC2CC2)[C@H]1O5)c1cc2ccccc2[nH]1

>  <System under test>
mouse KOR (Mus musculus)

>  <Cat>
t

$$$$
>  <Smiles data>
O=C(Cc1c[nH]c2ccccc12)N[C@H]1CC[C@@]2(O)[C@H]3Cc4ccc(O)c5c4[C@@]2(CCN3CC2CC2)[C@H]1O5

>  <System under test>
mouse KOR (Mus musculus)

>  <Cat>
f

$$$$
>  <Smiles data>
O=C(CCc1c[nH]c2ccccc12)N[C@@H]1CC[C@@]2(O)[C@H]3Cc4ccc(O)c5c4[C@@]2(CCN3CC2CC2)[C@H]1O5

>  <System under test>
mouse KOR (Mus musculus)

>  <Cat>
t

$$$$

Q) Is 1 nM strictly greater than the compound's reported Ki? compound: O=C(CCc1c[nH]c2ccccc12)N[C@H]1CC[C@@]2(O)[C@H]3Cc4ccc(O)c5c4[C@@]2(CCN3CC2CC2)[C@H]1O5
A) f

Q) Is 1 nM strictly greater than the compound's reported Ki? compound: O=C(N[C@H]1CC[C@@]2(O)[C@H]3Cc4ccc(O)c5c4[C@@]2(CCN3CC2CC2)[C@H]1O5)c1ccc2cc[nH]c2c1
A) f

Q) Is 1 nM strictly greater than the compound's reported Ki? compound: O=C(N[C@H]1CC[C@@]2(O)[C@H]3Cc4ccc(O)c5c4[C@@]2(CCN3CC2CC2)[C@H]1O5)c1ccc2[nH]ccc2c1
A) f

Q) Is 1 nM strictly greater than the compound's reported Ki? compound: O=C(N[C@H]1CC[C@@]2(O)[C@H]3Cc4ccc(O)c5c4[C@@]2(CCN3CC2CC2)[C@H]1O5)c1cc2ccccc2[nH]1
A) t

Q) Is 1 nM strictly greater than the compound's reported Ki? compound: O=C(CCCc1c[nH]c2ccccc12)N[C@H]1CC[C@@]2(O)[C@H]3Cc4ccc(O)c5c4[C@@]2(CCN3CC2CC2)[C@H]1O5
A) t

Q) Is 1 nM strictly greater than the compound's reported Ki? compound: O=C(N[C@@H]1CC[C@@]2(O)[C@H]3Cc4ccc(O)c5c4[C@@]2(CCN3CC2CC2)[C@H]1O5)c1cccc2cc[nH]c12
A) t

Values were extracted from paper PMC6405326.
